Reported Ki is given for each of the following molecules.
test system: Delta-type opioid receptor (Rattus norvegicus)
Sequence (P33533 whole entry): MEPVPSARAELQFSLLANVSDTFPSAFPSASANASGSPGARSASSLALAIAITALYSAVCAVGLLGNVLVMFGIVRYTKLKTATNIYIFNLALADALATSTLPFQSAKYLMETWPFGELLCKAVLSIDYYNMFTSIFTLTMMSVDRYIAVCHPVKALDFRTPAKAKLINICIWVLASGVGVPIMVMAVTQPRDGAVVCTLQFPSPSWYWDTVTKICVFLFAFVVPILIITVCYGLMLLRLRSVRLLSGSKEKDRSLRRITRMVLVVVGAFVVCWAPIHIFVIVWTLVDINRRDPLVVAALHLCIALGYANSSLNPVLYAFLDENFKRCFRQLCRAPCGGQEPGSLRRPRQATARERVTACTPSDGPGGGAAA
method notes: Displacement of [3H]-deltorphin 2 from delta opioid receptor in rat GH3 cells after 60 mins by scintillation counting analysis
State just the number; it will be interpreted in nM.

1) CC(C)C[C@H](NC(=O)[C@H](Cc1ccccc1)n1cc(CNC(=O)CNC(=O)[C@@H](N)Cc2ccc(O)cc2)nn1)C(=O)O | 460

Provide one value: measured Ki of "CC(C)C[C@@H](C(=O)O)n1cc([C@H](Cc2ccccc2)NC(=O)CNC(=O)CNC(=O)[C@@H](N)Cc2ccc(O)cc2)nn1"
89

* * *

test system: Delta-type opioid receptor (Mus musculus, UniProt P32300)
Sequence (P32300 whole entry): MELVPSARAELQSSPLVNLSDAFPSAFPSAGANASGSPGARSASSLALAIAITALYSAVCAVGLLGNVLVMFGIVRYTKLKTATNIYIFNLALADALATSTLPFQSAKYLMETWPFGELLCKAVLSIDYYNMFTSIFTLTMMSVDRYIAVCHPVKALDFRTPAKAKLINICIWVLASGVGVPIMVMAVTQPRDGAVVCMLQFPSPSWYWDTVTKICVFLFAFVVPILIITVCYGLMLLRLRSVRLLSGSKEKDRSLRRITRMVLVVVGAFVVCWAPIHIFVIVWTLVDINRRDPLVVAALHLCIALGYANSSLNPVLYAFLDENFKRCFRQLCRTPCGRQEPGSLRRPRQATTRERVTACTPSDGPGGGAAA
method notes: Agonist activity at delta opioid receptor in mouse vas deferens assessed as inhibition of electrically-stimulated muscle contraction
pEC50: −log10 of the molar value.
recorded endpoint: pEC50

1) CC(C)C[C@@H](C(=O)O)n1cc([C@H](Cc2ccccc2)NC(=O)CNC(=O)CNC(=O)[C@@H](N)Cc2ccc(O)cc2)nn1 | 6.08
2) CC(C)C[C@H](NC(=O)[C@H](Cc1ccccc1)NC(=O)Cn1cc(CNC(=O)[C@@H](N)Cc2ccc(O)cc2)nn1)C(=O)O | < 5.82
3) CC(C)C[C@H](NC(=O)[C@H](Cc1ccccc1)NC(=O)CNC(=O)Cn1cc([C@@H](N)Cc2ccc(O)cc2)nn1)C(=O)O | < 5.82

Provide one value: measured pEC50 of "CC(C)C[C@H](NC(=O)[C@H](Cc1ccccc1)n1cc(CNC(=O)CNC(=O)[C@@H](N)Cc2ccc(O)cc2)nn1)C(=O)O"
< 5.82
